- Test Target: SBK1 (human) (UniProt Q52WX2)
- Sequence (Q52WX2 whole entry, looked up): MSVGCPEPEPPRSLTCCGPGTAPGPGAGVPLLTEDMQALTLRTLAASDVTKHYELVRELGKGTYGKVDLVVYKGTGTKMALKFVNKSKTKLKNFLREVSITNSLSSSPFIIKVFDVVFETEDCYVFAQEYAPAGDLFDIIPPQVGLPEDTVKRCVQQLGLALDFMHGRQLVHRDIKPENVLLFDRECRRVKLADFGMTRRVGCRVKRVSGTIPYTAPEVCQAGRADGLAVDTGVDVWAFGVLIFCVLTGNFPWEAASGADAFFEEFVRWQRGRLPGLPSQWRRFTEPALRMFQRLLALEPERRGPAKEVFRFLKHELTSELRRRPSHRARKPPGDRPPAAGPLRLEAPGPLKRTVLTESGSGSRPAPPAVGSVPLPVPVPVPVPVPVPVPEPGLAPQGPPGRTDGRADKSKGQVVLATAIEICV
- Experiment Notes: KINOMEscan competition binding
- Condition Details: compound 10.0 µM
Assay Metric: kinase still bound, per cent of control (%)
Give the value in % but do not write % after it.

>>> print(df.to_string())
                                   compound                    test_target                             assay_metric  experimental_result
0  N#Cc1cc(-c2ccnc(Nc3ccc(-n4cnc(-c5cccnc5)n4)cc3)n2)cc(N2CCOCC2)c1  SBK1 (human) (UniProt Q52WX2)  kinase still bound, per cent of control                  100

Here is another compound to look at.
// query Given the compound CC(=O)c1c(C)c2cnc(Nc3ccc(N4CCNCC4)cn3)nc2n(C2CCCC2)c1=O , what is its reported kinase still bound, per cent of control?
// result 36
